system: 786-0 renal; assay: NCI-60 one-dose screen, 48 h (100 = growth as untreated, 0 = no growth, -100 = all killed); details: 10 µM unless noted
About 83,000 compounds went through this panel and 20% of them were active in at least one assay; those are over-represented in the sample as a whole. Activity calls are given as the source filed them. Rule for the calls: active = growth percent below 10; inactive = the rest.
measurement-label: growth

Examples from the recorded data:
Would you mind telling me what growth value was observed for `CCCCSc1nc(Nc2ccc(C(C)=O)cc2)c(C#N)c(-c2ccc(OC)cc2)n1` ? -12.4% (active)

Please answer likewise for `CCCCCCCCOc1cccc(S(=O)(=O)Nc2ccc(C)cc2C(=O)O)c1` 99.4% (inactive)

Please answer likewise for CCOC(=O)/C=C/c1cccc2c1C(=O)NC(C)(c1cc3cc(Br)ccc3oc1=O)N2 (stereo not given) 59.4% (inactive)

Please answer likewise for `Cc1ccc(C(SCCNCc2cc(N(C)C)ccn2)(c2ccccc2)c2ccccc2)cc1` -76.6% (active)

New cases:
Would you mind telling me what growth value was observed for COc1cc2c(c(OC)c1OC)C(=O)CC(c1cccc(NC(=O)c3cc(N)ccc3Cl)c1)O2 (stereo not given) ? 84.7% (inactive)

Please answer likewise for Cc1sc(C(NC(=O)OCCn2c([N+](=O)[O-])cnc2C)C(F)(F)Cl)nc1-c1ccc(OC(F)(F)F)cc1 (stereo not given) -91.3% (active)

Please answer likewise for `Cc1cc(=O)oc2cc(OCCCCOc3ccc(/C=C/C(=O)Nc4ccccc4N)cc3)ccc12` 49.5% (inactive)

Please answer likewise for `COc1ccc2c(c1)C(=N/N=C(\C)c1ccc(OC)c(S(N)(=O)=O)c1)C(=O)N2` 97.9% (inactive)

Please answer likewise for CC12CC[C@@H]3[C@]4(C)COC(c5cn[nH]c5-c5ccc(Br)cc5)O[C@@H]4CC[C@@]3(C)[C@@H]1CC(C1=CCOC1=O)O2 (stereo not given in full) 62.3% (inactive)

Please answer likewise for `O=C(O)Cn1c(O)c(/C=C2/C=c3cc4c(cc3=NC2=O)OCCO4)sc1=S` 108% (inactive)

Please answer likewise for `O=C(CN1C(=O)/C(=C/c2ccccc2Cl)SC1=S)N1CCOCC1` 80.4% (inactive)

Please answer likewise for `CCCSc1nc(NCCc2c[nH]c3ccccc23)c(C#N)c(-c2ccc(OC)cc2)n1` 31.9% (inactive)

Please answer likewise for `Cc1ccc(Cc2cnc(NC(=O)c3ccc(/C=C4\SC(=S)N(C)C4=O)cc3)s2)cc1` 37.8% (inactive)

Please answer likewise for CN(C)CCOc1ccc(C(=O)C2[C@H](c3ccc(Cl)cc3)[C@@H](c3ccccc3)NC23C(=O)Nc2ccccc23)cc1 (stereo not given in full) 40.8% (inactive)

Please answer likewise for `COc1cc(OC)cc(-c2cc3ccc(N(C)C)cc3c(=O)[nH]2)c1` 29.9% (inactive)
